Would you kindly list ED50 for each of these compounds?
# ASSAYED TARGET: Platelet-activating factor receptor (Rattus norvegicus) (UniProt P46002)
# Sequence (P46002 whole entry): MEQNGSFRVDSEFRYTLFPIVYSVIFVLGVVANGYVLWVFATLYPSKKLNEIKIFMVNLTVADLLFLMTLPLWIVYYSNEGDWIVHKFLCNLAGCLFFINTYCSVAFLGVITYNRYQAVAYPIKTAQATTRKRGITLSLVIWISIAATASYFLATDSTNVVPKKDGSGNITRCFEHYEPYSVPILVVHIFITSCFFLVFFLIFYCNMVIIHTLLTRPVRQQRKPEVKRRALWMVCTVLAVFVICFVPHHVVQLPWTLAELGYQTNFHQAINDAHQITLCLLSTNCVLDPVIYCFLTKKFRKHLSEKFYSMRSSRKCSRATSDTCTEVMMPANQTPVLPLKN
# MEASUREMENT NOTES: Ability to block the effect of exogenously administered PAF upon intravenous administration in PAF-induced rat skin permeability assay
# Type: functional, organism-based
One number for each entry, in mg/kg.

These recorded examples may help you get a feel for the data.
Bench note, Platelet-activating factor receptor (Rattus norvegicus) (UniProt P46002): COC(=O)c1cccc2c1c(C(=O)c1ccc(Cn3c(C)nc4c(O)nccc43)cc1)cn2C(=O)N(C)C , ED50 reads 0.25

Bench note, Platelet-activating factor receptor (Rattus norvegicus) (UniProt P46002): COc1cccc2c1c(C(=O)c1ccc(Cn3c(C)nc4cnccc43)cc1)cn2C(=O)N(C)C , ED50 reads 0.007

Would you kindly look at the next entry?
Bench note, Platelet-activating factor receptor (Rattus norvegicus) (UniProt P46002): Cc1cccc2c1c(C(=O)c1ccc(Cn3c(C)nc4cnccc43)cc1)cn2C(=O)N(C)C , ED50 reads 0.004

###

# MEASUREMENT NOTES: The compound was evaluated for its bioavailability in monkey
# Format: ADME, organism-based
# CONDITION INFO: primates, in vivo
READOUT TYPE: bioavailability (%)
One number for each entry, in %.

Memo: CC(=O)OC[n+]1cccc([C@H]2SCc3c(C(=O)c4cn(C(=O)N(C)C)c5cc(-c6ccc(F)cc6)ccc45)ccn32)c1.[Cl-] , reported bioavailability: 36

###

# ASSAYED TARGET: UniProtKB P46002
# MEASUREMENT NOTES: Ability to block the effect of exogenously administered PAF upon intravenous administration in PAF-induced rat skin permeability assay
# Assay type: functional, organism-based
Would you kindly list ED50 for each of these compounds?
Answers are plain numbers, in mg/kg.

Memo: Cc1nc2cnccc2n1CN1CCN(S(=O)(=O)c2cn(C(=O)N(C)C)c3cc(-c4ccc(F)cc4)ccc23)CC1 , reported ED50: 0.019

Memo: Cc1nc2cnccc2n1Cc1ccc(C(=O)c2cn(C(=O)N(C)C)c3ccccc23)cc1 , reported ED50: 0.18

Memo: COC(=O)c1cccc2c1c(C(=O)c1ccc(Cn3c(C)nc4cnccc43)cc1)cn2C(C)C , reported ED50: 0.1

Record ED50 per entry; entries follow.
1. C#Cc1cccc2c1c(C(=O)c1ccc(Cn3c(C)nc4cnccc43)c(F)c1)cn2C(=O)N(C)C
2. CCOC(=O)c1cccc2c1c(C(=O)c1ccc(Cn3c(C)nc4cnccc43)cc1)cn2C(=O)N(C)C
3. COC(=O)c1cccc2c1c(C(=O)c1ccc(Cn3c(C)nc4c[n+]([O-])ccc43)cc1)cn2C(=O)N(C)C
4. COC(=O)c1cccc2c1c(C(=O)C1CCC(Cn3c(C)nc4cnccc43)CC1)cn2C(=O)N(C)C (centres undefined)

Found:
0.003
0.006
0.14
0.02

###

Would you kindly list ED50 for each of these compounds?
# ASSAYED TARGET: UniProt P46002
# MEASUREMENT NOTES: Ability to block the effect of exogenously administered PAF upon intravenous administration in PAF-induced rat skin permeability assay
# Type: functional, organism-based

Record ED50 per entry; entries follow.
1. COC(=O)c1cccc2c1c(C(=O)c1ccc(Cn3c(C)nc4cnccc43)cc1)cn2C(=O)N1CCCC1
2. Cc1nc2cnccc2n1Cc1ccc(C(=O)c2cn(C(=O)N(C)C)c3ccc(-c4ccc(F)cc4)cc23)cc1
3. Cc1nc2cnccc2n1CCN1CCN(C(=O)c2cn(C(=O)N(C)C)c3cc(-c4ccc(F)cc4)ccc23)CC1
4. Cc1nc2cnccc2n1CCCN(C)CC(=O)c1cn(C(=O)N(C)C)c2cc(-c3ccc(F)cc3)ccc12

Found:
1: 0.005 mg/kg; 2: > 1 mg/kg; 3: > 1 mg/kg; 4: > 1 mg/kg
